Origin of measurements: PubChem BioAssay

assay: probe aEGFR binding to arrayed compounds – biochemical, biotinylated probe, 635/667 nm fluorescence, primary screen (AID 1097); settings: small-molecule microarray, higher = more signal;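 further: probe is a biotinylated anti-EGFR antibody binding compounds printed on slides; score combines fluorescence near 667 nm and signal to noise of each spot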
EXPERIMENTAL_ENDPOINT: composite z-score
One number for each entry.

COMPOUND: CN(C)C(=O)[C@@]1(Cc2ccccc2CN=[N+]=[N-])N=C(c2ccc(OCCCO)cc2)O[C@H]1c1ccccc1N=[N+]=[N-]
EXPERIMENTAL_ENDPOINT: composite z-score
RECORDED_VALUE: 0.242

Give measured composite z-score for every item shown.
1. COc1ccc([Si](C)(C)[C@@H]2[C@@H](CC(=O)N3Cc4ccccc4C[C@H]3CO)O[C@]3(C(=O)N(Cc4ccc(N5C(=O)c6cccc7cccc5c67)cc4)c4ccccc43)[C@H]2C)cc1
2. Cc1ccc(F)cc1S(=O)(=O)N[C@@H]1CCN(Cc2ccc(Br)cc2)C1
3. CCCCC(=C=CC[C@H](O)c1ccc(OCCO)cc1)CCO
4. N#Cc1ccc(NN2C(C(O)c3ccc(Br)cc3)C=CC3C(=O)N(c4ccccc4)C(=O)C32)cc1 (configuration not stated)
5. CCCC=C(CCC)[C@@H](NC(=O)C(C)(C)C)c1ccc(C(=O)OC)cc1

(A)
[0.0717, -0.0455, -0.232, 0.233, -0.0023]

Briefly, composite z-score measured for COc1ccc([Si](C)(C)[C@@H]2[C@@H](CC(=O)N3CCC[C@H]3CO)O[C@]3(C(=O)N(Cc4cccc(N5C(=O)COc6ccccc65)c4)c4ccccc43)[C@H]2C)cc1 : -0.165

====

What composite z-score was measured for each of the following?
test: small molecules captured by biotinylated probe aFSTL3 – biochemical, small-molecule microarray, fluorescence 635/667, stem cell growth factor project, primary screen (AID 1064); settings: higher = more signal;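 further: measures binding of the biotinylated anti-FSTL3 antibody to printed compounds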
Numbers only.

Past entries and their recorded results:
COMPOUND: COc1cc2c(cc1O)C(C1CC1)N(C)CC2 (stereo not given)
composite z-score: 0.646

COMPOUND: CCCCCN1CC=CC23O[C@@H]4C=CCCOC(=O)C4[C@H]2C(=O)N(CCCCCCO)[C@@H]3C1=O (stereo not given in full)
composite z-score: 0.0199

COMPOUND: CC(CO)N1C(=O)[C@@H]2[C@H]3C(=O)OCC=C[C@H]3OC23C=CCN(Cn2nnc4ccccc42)C(=O)[C@@H]13 (stereo not given in full)
composite z-score: 0.12

COMPOUND: COC(=O)C(CC#Cc1ccc2c(c1)[C@]1(C(=O)N2)[C@H](c2ccc(O)cc2)N2[C@H](c3ccccc3)[C@H](c3ccccc3)OC(=O)[C@H]2[C@@H]1C(=O)NC[C@H](O)c1ccccc1)C(=O)OC
composite z-score: -0.14

COMPOUND: COC(=O)C1(CC(C)C)C=C2C(=C(c3ccccc3)C(=O)C2C)CN1 (stereo not given)
composite z-score: 1.92

Report composite z-score for every entry below.
1. CCCCCCc1nc(Cc2cc(OC)c(OC)c(OC)c2)cc2c1[Si](C(C)C)(C(C)C)OC2
2. C=CC[C@]1(C(=O)N2CCCCC2)N=C(c2ccc(OCCCO)cc2)O[C@H]1c1ccccc1CN=[N+]=[N-]
3. COC(=O)[C@@]1(Cc2ccccc2)[C@H]2c3cc(C(=O)N4CCCC4)n(CCc4ccccn4)c3C[C@H]2CN1C(=O)c1ccccc1

(A)
1. -0.288
2. -0.25
3. 0.223

Lab note: each compound below needs its composite z-score filled in.
1. COc1cc(NN2C(C(O)c3cc(OC)c(OC)c(OC)c3)C=CC3C(=O)N(C)C(=O)C32)cc(OC)c1OC (stereo not given)
2. COCCOC(=O)N1C(=O)[C@@]2(c3cc(C#CCNC(N)=O)ccc31)[C@H](C(N)=O)[C@H]1C(=O)O[C@H](c3ccccc3)[C@H](c3ccccc3)N1[C@@H]2c1ccccc1OCCO
3. C=CCC(OC(C)=O)[C@@H]1[C@@H](N(Cc2ccc(-c3ccccc3)cc2)C(=O)c2ccc(-c3ccccc3)cc2)c2cc(OCCCO)ccc2N1C(=O)c1ccc2ccccc2c1 (stereo not given in full)
4. N#Cc1ccc(NN2C(C(O)c3ccc(Br)cc3)C=CC3C(=O)N(c4ccccc4)C(=O)C32)cc1 (stereo not given)
5. O=C1N(CCS(=O)(=O)c2ccccc2)c2ccccc2[C@H]2OC(c3ccc(OCCCO)cc3)=N[C@@]12Cc1ccccc1
6. CCCCC[C@H]1OC[C@@]23C=C(Br)[C@@H](CC12)[C@@]1(CO1)C3=O (stereo not given in full)
7. CO[C@H]1O[C@H](CO)[C@@H](OC(=O)Nc2ccccc2)[C@H](OC(=O)c2cc3ccccc3[nH]2)[C@H]1OC(=O)c1cc2ccccc2[nH]1

(A)
[-0.0324, -0.0102, 0.0946, 1.36, 0.529, -0.41, 0.731]

====

test system: Lefty1; experiment: Lefty1 protein binding to printed compounds – biochemical, small-molecule microarray, 635/667 nm fluorescence, primary screen (AID 1139); conditions: fluorescence 635/667, higher = more signal
EXPERIMENTAL_ENDPOINT: composite z-score

COMPOUND: COC(=O)[C@@]1(Cc2ccc(OC)cc2)[C@H]2c3cc(C(=O)N(C)C)n(Cc4ccc(C)o4)c3C[C@H]2CN1C(=O)c1ccccc1
composite z-score: -0.0198
--
COMPOUND: [N-]=[N+]=Nc1ccccc1[C@@H]1OC(c2ccc(OCCCO)cc2)=N[C@]1(Cc1ccccc1)C(=O)N1CCCCC1
composite z-score: 0.816
--
COMPOUND: C=C(/C(=C/C[C@H](OC(C)=O)c1ccc(CO)o1)c1cnc2ccccc2c1)C(C)C
composite z-score: 1.55
--
COMPOUND: CN(C)C(=O)[C@@]1(Cc2ccccc2CN=[N+]=[N-])N=C(c2ccc(OCCCO)cc2)O[C@H]1c1ccccc1N=[N+]=[N-]
composite z-score: 0.627
--
COMPOUND: C=CCNC(=O)[C@H]1[C@@H]2C(=O)O[C@@H](c3ccccc3)[C@@H](c3ccccc3)N2[C@@H](c2ccccc2OCCO)[C@]12C(=O)N(C(=O)OCCOC)c1ccc(C#CC3(O)CCCCCC3)cc12
composite z-score: 0.876

Dear reader, for each entry below, please note its composite z-score.
1. CCCCC(CC)C(O)C1C=CC2C(=O)N(c3ccccc3)C(=O)C2N1Nc1ccc(C#N)cc1 (stereo not given)
2. CC(C)C(CO)N1C(=O)[C@@H]2[C@H]3C(=O)OCC=C[C@H]3OC23C=CCN(c2ccc(Cl)cc2)C(=O)[C@@H]13 (stereo not given in full)
3. C=C[C@H]1C(C(=O)OCC)=CC[C@@H](c2ccccc2)N1S(=O)(=O)c1ccc(C)cc1
4. COc1cccc(C)c1NC(=O)O[C@H]1[C@H](OC(=O)Nc2ccccc2-c2ccccc2)[C@H](OC(=O)Nc2ccccc2-c2ccccc2)[C@@H](OC)O[C@@H]1CO

(A)
1: 0.131; 2: -0.712; 3: 0.325; 4: 0.906

Your task in this section: give composite z-score for each listed record.
1. [N-]=[N+]=Nc1ccccc1[C@H]1OC(c2ccc(OCCCO)cc2)=N[C@@]1(Cc1ccccc1)C(=O)NCCN1CCOCC1
2. Cc1ccc(NN2C(C(O)c3c(F)cccc3Cl)C=CC3C(=O)N(C4CCCCC4)C(=O)C32)cc1 (stereo not given)
3. CCOC(=O)C1=C[C@@H](C(C)(C)C)N(S(=O)(=O)c2ccc(C)cc2)[C@H]1c1cccc2ccccc12
4. NC(=O)[C@H]1[C@@H]2C(=O)O[C@@H](c3ccccc3)[C@@H](c3ccccc3)N2[C@@H](c2ccc(OCCO)cc2)[C@]12C(=O)Nc1ccc(C#CCCO)cc12
5. O=C1O[C@@H](c2ccccc2)[C@@H](c2ccccc2)N2[C@@H](c3ccc(O)cc3)[C@]3(C(=O)Nc4ccc(C#CCCO)cc43)[C@@H](C(=O)N3CCN(c4ncccn4)CC3)[C@H]12
6. CC(C)(C)OC(=O)CC[C@@]1(C(=O)NCC(O)CO)N=C(c2ccc(OCCCO)cc2)O[C@@H]1c1ccccc1CN=[N+]=[N-] (stereo not given in full)
7. COC(=O)[C@@]1(Cc2ccc(F)cc2)[C@H]2c3cc(C(=O)N4CCCC4)n(CCc4c[nH]c5ccccc45)c3C[C@H]2CN1C(=O)c1ccccc1

(A)
1: 0.624; 2: -0.209; 3: 0.139; 4: 0.551; 5: 0.952; 6: -0.0839; 7: -0.627

====

target: Neurogenic locus notch homolog protein 2 (Homo sapiens); assay: small molecules binding Notch2 protein – biochemical, small-molecule microarray, 635 nm fluorescence, stem cell growth factors, primary screen (AID 1073); conditions: higher = more signal
EXPERIMENTAL_ENDPOINT: composite z-score
Give bare numbers.

MOLECULE: NCCCCCNC(=O)[C@@H]1C[C@@H]2C(=O)N[C@@H](CCCCN)C(=O)N2[C@@H]1c1ccc(O)cc1
composite z-score: 1.39

# batch: return composite z-score for each of the 4 molecules below
1. O=C(O)[C@@H]1C[C@@H]2C(=O)N3CCC[C@H]3C(=O)N2[C@@H]1c1ccc(O)cc1
2. C=CCNC(=O)[C@@H]1[C@H]2C(=O)O[C@H](c3ccccc3)[C@H](c3ccccc3)N2[C@H](c2ccccc2OCCO)[C@@]12C(=O)N(C(=O)OCCOC)c1ccc(C#CC3(O)CCCCCC3)cc12
3. CC1CC/C=C\[C@H]2OC34C=CCN(Cc5ccccc5)C(=O)[C@H]3N(C(CO)C(C)C)C(=O)[C@@H]4C2C(=O)O1 (stereo not given in full)
4. [N-]=[N+]=Nc1ccccc1C[C@@]1(C(N)=O)N=C(c2ccc(OCCCO)cc2)O[C@@H]1c1ccccc1N=[N+]=[N-]

(A)
1: 0.0995; 2: 1.14; 3: -0.68; 4: 1.45

Give composite z-score for each listed item.
1. CC(C)[Si](C#C[Si](C(C)C)(C(C)C)C(C)C)(O[C@H](c1ccccc1)c1cn(Cc2ccccc2)nn1)C(C)C
2. COC(=O)[C@@]1(Cc2ccc(OC)cc2)[C@H]2c3cc(C(=O)N4CCCC4)n(CCc4c[nH]c5ccc(OC)cc45)c3C[C@H]2CN1C(=O)c1ccccc1
3. C=C(COC)/C(=C/C[C@H](OC(=O)c1ccncc1)c1ccccc1OCCO)c1cc(C(=O)OC)ccc1OC
4. C=CC[C@H](OC(=O)Nc1ccc(SC)cc1)c1ccc(O)c2ccccc12
5. COCCOC(=O)N1C(=O)[C@@]2(c3cc(C#CC4(O)CCCCCC4)ccc31)[C@H](C(=O)Nc1nc3ccccc3s1)[C@H]1C(=O)O[C@H](c3ccccc3)[C@H](c3ccccc3)N1[C@@H]2c1ccc(O)cc1
6. CC(C)N1C(=O)c2ccccc2[C@@H](C(=O)NCCN2CCOCC2)[C@@H]1c1ccc(CO)cc1

(A)
[0.615, 1.74, 0.302, 1.3, 1.24, -1.61]

Your task in this section: give composite z-score for each listed record.
1. COc1cc2c(cc1O)C(C1CC1)N(C)CC2 (stereo not given)
2. CCOC(=O)C[C@H]1[C@H](OC(=O)Cc2ccc3c(c2)OCO3)[C@@H](NC(=O)C2CCCCC2)c2cc(OCCCO)ccc2N1C(=O)c1ccccc1
3. CO[C@H]1O[C@H](CO)[C@@H](OC(=O)Nc2ccccc2)[C@H](OC(=O)c2cc3ccccc3[nH]2)[C@H]1OC(=O)c1cc2ccccc2[nH]1
4. COc1ccc(CCNC(=O)[C@@]2(Cc3ccccc3I)c3ccccc3C(=O)N(C3CCCCC3)[C@H]2c2ccc(CO)cc2)cc1

(A)
-0.531
0.0925
0.518
0.281
